These entries and their values trace back to the Deep4Chem optical property database.

run-description: photoluminescence quantum yield (fraction); solvent given as SMILES
conditions: in C1CCOC1
So basically: photoluminescence quantum yield at 0.2 or higher? That is T. Lower than 0.2? That is F.

* NS(=O)(=O)c1ccc(N2N=C(c3ccc(O)cc3)CC2c2ccc(F)cc2)cc1 (stereo unspecified) | T
* COc1cc(C2=CC3=C(c4c(C)cc(C)cc4C)c4cc(-c5cc(OC)c(OC)c(OC)c5)c(-c5cc(OC)c(OC)c(OC)c5)n4[B-](F)(F)[N+]3=C2c2cc(OC)c(OC)c(OC)c2)cc(OC)c1OC | F
* CC1(C)CCc2c(c3ccccc3c3nc4ccccc4nc23)O1 | F
* CCC1(CC)c2cc(B(c3c(C)cc(C)cc3C)c3c(C)cc(C)cc3C)ccc2-c2c1c1c(c3c2C(CC)(CC)c2cc(N(c4ccccc4)c4ccccc4)ccc2-3)C(CC)(CC)c2cc(N(c3ccccc3)c3ccccc3)ccc2-1 | T
* CCCCCCCCCCCCCCCCOc1cc(C#Cc2ccc3ccccc3c2-c2c(C#Cc3cc(OCCCCCCCCCCCCCCCC)c(C#Cc4ccc(C=C(C#N)C#N)cc4)cc3OCCCCCCCCCCCCCCCC)ccc3ccccc23)c(OCCCCCCCCCCCCCCCC)cc1C#Cc1ccc(C=C(C#N)C#N)cc1 | T
* COc1ccc(-c2cc3c(cc2OC)-c2c(c4c(c5c2-c2cc(OC)c(-c6ccc(OC)cc6)cc2C5)C(=O)N(CCC(C)C)C4=O)C3)cc1 | T

----------
run-description: photoluminescence quantum yield (fraction); solvent given as SMILES
conditions: in C1CCOC1
The entries below come with measured photoluminescence quantum yield values attached.
property: photoluminescence quantum yield

- CCCCOc1ccc2cc(-c3ccc(C)cc3)c(=O)oc2c1: 0.611
- CC(C)(C)c1ccc(C2=C(c3ccc(C(C)(C)C)cc3)C(c3ccc(C(C)(C)C)cc3)=[N+]3C2=C(c2ccccc2)c2c(-c4ccc(C(C)(C)C)cc4)c(-c4ccc(C(C)(C)C)cc4)c(-c4ccc(C(C)(C)C)cc4)n2[B-]3(F)F)cc1: 0.3
- CCN1c2ccc(/C=N/Nc3ccccn3)cc2Sc2cc(-c3cccc4ccccc34)ccc21: 0.2
- Cc1cc(C)c(C2=C(c3c(C)sc(-c4ccc(-c5nc(-c6ccccc6)c(-c6ccccc6)[nH]5)cc4)c3C)C(F)(F)C(F)(F)C2(F)F)s1: 0.091
- N#Cc1ccc(/C=C/C(F)(F)F)c(N)c1: 0.82
- Cc1cc(C)c([B-]2(c3c(C)cc(C)cc3C)[O+]=P(c3ccccc3)(c3ccccc3)c3cc(C#Cc4ccccc4)sc3-c3sc(C#Cc4ccccc4)cc32)c(C)c1: 0.063
- c1ccc(-c2ccc(-c3ccc(-n4c5ccccc5c5ccccc54)cc3)c3nsnc23)cc1: 0.426
- c1ccc(-c2nn(-c3ccccc3)c3nc4ccc(N(c5ccccc5)c5cccc6ccccc56)cc4cc23)cc1: 0.57

----------
run-description: photoluminescence quantum yield (fraction); solvent given as SMILES
conditions: in ClCCl
Recorded photoluminescence quantum yield split into classes b0 (below 0.1), b1 (0.1 to below 0.4), b2 (0.4 or more)

- Cc1cn2cc(-c3ccc([N+](=O)[O-])cc3)[n-][n+]2c1: b0
- C(=C\c1ccc(N(c2ccccc2)c2ccccc2)cc1)/c1ccc(-c2cc(-c3ccccn3)nc(-c3ccccn3)c2)cc1: b2
- CCCCCCN1C(=O)c2cccc3c(-c4ccc(-c5cc(-c6ccc(C)cc6)nn5-c5ccccc5)s4)ccc(c23)C1=O: b1
- COc1c2ccccc2c(OC)c2c1c1c(C)ccc(OC)c1n2C: b1
- CCOC(=O)c1[nH]c(C)c(/C=C/c2c(I)c(C)c3n2[B-](F)(F)[N+]2=C(C)C(I)=C(C)C2=C3c2cc(OC)cc(OC)c2)c1C: b1
- C(=C\c1cnccn1)/c1ccc2nccnc2c1: b0
- CCCCNC(=O)c1sc(-c2ccc(-c3cc(-c4ccc(C(C)(C)C)cc4)c(C(=O)NCCCC)s3)s2)cc1-c1ccc(C(C)(C)C)cc1: b1
- C[Si]1(C)c2cc(-c3ccc(-c4cccs4)s3)ccc2C=Cc2ccc(-c3ccc(-c4cccs4)s3)cc21: b2
- CCN(CC)c1ccc2cc(/C=C/C(=C(C#N)C#N)c3ccc4c(c3)c3ccccc3n4CC)c(=O)oc2c1: b1
- c1ccc(C2CCN3COc4c5ccccc5c5c6c7c(c2c3c46)C(c2ccccc2)CCN7CO5)cc1 (configuration not stated): b0
- CC1=CC(c2ccc3cc(N(C)C)ccc3c2)=[O+][B-](F)(F)O1: b2
- Cc1cc(C)c(C2=C3C=C(c4ccccc4)C(c4ccccc4)=[N+]3[B-](F)(F)n3c2cc(-c2ccccc2)c3-c2ccccc2)c(C)c1: b2
- CCN(CC)c1ccc2cc(-c3nc4cc(C(=O)Nc5cccc(OC)c5)ccc4o3)c(=O)oc2c1: b1
- CN(C)c1ccc(/C=C/c2nc(/C=C/c3ccc(N(C)C)cc3)c3ccccc3n2)cc1: b0
- CCCCCCCCC1(CCCCCCCC)c2cc(C#CC#Cc3ccc(N(c4ccccc4)c4ccccc4)cc3)ccc2-c2ccc(C=O)cc21: b2
- CN(C)c1ccc(-c2nc(-c3ccccc3)c3ccccn23)cc1: b1

----------
run-description: photoluminescence quantum yield (fraction); solvent given as SMILES
conditions: in CC(C)O
property: photoluminescence quantum yield

• COc1ccccc1-c1c(-c2ccccc2O)nc(-c2ccc(C(F)(F)F)cc2)n1-c1ccc(C)cc1 = 0.01
• CC[n+]1c(C=C2C(=O)C(C=C3N(C)c4ccccc4C3(C)C)=C2[O-])sc2ccccc21 = 0.1
• COc1ccccc1-c1nc(-c2ccc(C(F)(F)F)cc2)n(-c2ccc(C)cc2)c1-c1ccccc1OC = 0.65
• NS(=O)(=O)c1ccc(N2N=C(c3ccc(O)cc3)CC2c2ccccc2)cc1 (stereo unspecified) = 0.44
• COc1ccc2c3c(cccc13)C(=O)c1ccccc1-2 = 0.54
• COc1cc(/C=C/c2ccccc2)cc(OC)c1 = 0.27
• N#Cc1ccc(C[C@H](N)C(=O)O)cc1 = 0.071
• CN(C)c1ccc(C#Cc2ccccc2)cc1 = 0.011
• CN(C)c1ccc(C#Cc2ccc(C#N)cc2)cc1 = 0.006
• CC1(C)Oc2c(c3nc4ccccc4nc3c3ccccc23)CC1Br (stereo unspecified) = 0.39
• CN(C)c1ccc(/C=C/C=N/N=C/c2ccc3ccc4cccc5ccc2c3c45)cc1 = 0.015

----------
run-description: photoluminescence quantum yield (fraction); solvent given as SMILES
conditions: in CC#N
property: photoluminescence quantum yield

- C=Cc1cc(OC)cc(OC)c1: 0.5
- N#Cc1ccc(/C=C/C=C/C2=NC3C(=O)NC(N)=NC3N2[C@H]2C[C@H](O)[C@@H](CO)O2)cc1 (some centres undefined): 0.47
- CCN(CC)c1ccc(/C=C/C2=[O+][B-](F)(F)Oc3c2c(=O)oc2cc(N(CC)CC)ccc32)cc1: 0.011
- CN(C)c1ccc(C=C/C=C/C=C/c2ccc(C#N)cc2)cc1: 0.261
- Cc1ccc(O)c(-c2[nH]c(=O)n3c2-c2ccccc2C3=O)c1: 0.51
- Cc1cccc(-c2[nH]c(=O)n3c2-c2ccccc2C3=O)c1O: 0.52
- O=C1C2=C(O[B-](F)(F)[n+]3c2ccc2ccccc23)c2ccc(N3CCOCC3)c3cccc1c23: 0.49
- COc1ccc(C2=CC3=C(c4c(C)cc(C)cc4C)c4cc(-c5ccc(OC)cc5)c(-c5ccc(OC)cc5)n4[B-](F)(F)[N+]3=C2c2ccc(OC)cc2)cc1: 0.24
- CCCCCCCCCCCCC(CCCCCCCCCC)Cn1c2cc(/C=C/c3nc4ccccc4s3)c3cccc4c5cccc6c(/C=C/c7nc8ccccc8s7)cc1c(c65)c2c34 (centres undefined): 0.434

----------
The entries below come with measured photoluminescence quantum yield values attached.
run-description: photoluminescence quantum yield (fraction); solvent given as SMILES
conditions: in OCC(O)CO
property: photoluminescence quantum yield

• CN(C)c1ccc(/C=C/C=C/c2nc3ccccc3o2)cc1 = 0.0359
• CN(CCO)c1ccc(/N=N/c2ccc([N+](=O)[O-])cc2)cc1 = 0.0011
• CCN(CC)c1ccc(/C=C/C2=[O+][B-](F)(F)Oc3c2c(=O)oc2cc(N(CC)CC)ccc32)cc1 = 0.36
• N#Cc1cccc2c(N)c(-c3nn([C@H]4C[C@H](O)[C@@H](CO)O4)c4ncnc(N)c34)ccc12 = 0.12

----------
run-description: photoluminescence quantum yield (fraction); solvent given as SMILES
conditions: in C1CCCCC1
The entries below come with measured photoluminescence quantum yield values attached.
property: photoluminescence quantum yield

• c1ccc(N(c2ccccc2)c2ccc3c(ccc4nc5ccc6cc(N(c7ccccc7)c7ccccc7)ccc6c5nc43)c2)cc1 = 0.56
• CN(C)c1ccc(C(=O)Nc2ccccc2)cc1 = 0.0011
• COc1c(-c2ccc(N(C)C)cc2)oc2ccccc2c1=O = 0.048
• COC(=O)C(Cc1ccc2oc(-c3ccc4c(c3)c3ccccc3n4-c3ccccc3)nc2c1)NC(=O)OC(C)(C)C (configuration not stated) = 0.76
• COC(=O)[C@H](Cc1ccc2oc3c(c2c1)=CC1=C(c2ccc(OC)cc2)c2cc4c5cc(C[C@H](NC(=O)OC(C)(C)C)C(=O)OC)ccc5oc4n2[B-](F)(F)[N+]=31)NC(=O)OC(C)(C)C = 0.81
• Cc1cc(C)c(C2=C3C=C(c4ccccc4)C(c4ccccc4)=[N+]3[B-](F)(F)n3c2cc(-c2ccccc2)c3-c2ccccc2)c(C)c1 = 0.94
• COc1ccc(/C=C/c2ccccc2)cc1 = 0.022
• CCCCC1=Cc2c3ccc4cccc5ccc(c6cc(-c7ccc(N(c8ccccc8)c8ccccc8)cc7)n(c26)P1(=O)c1ccccc1)c3c45 (configuration not stated) = 0.56
• CCC1=C(C)C2=C(C)c3cc(I)c(I)n3[B-](F)(F)[N+]2=C1C = 0.2
• COc1ccc(C2=CC3=C(c4c(C)cc(C)cc4C)c4cc(-c5ccc(OC)cc5)c(-c5ccc(OC)cc5)n4[B-](F)(F)[N+]3=C2c2ccc(OC)cc2)cc1 = 0.64
• CC[Si](CC)(CC)Oc1cccc(O[Si](CC)(CC)CC)c1-c1c2ccccc2c(-c2c(O[Si](CC)(CC)CC)cccc2O[Si](CC)(CC)CC)c2ccccc12 = 0.96
• CCCCCCCCOc1ccc2c3c(c4ccc(OCCCCCCCC)cc4c2c1)C(C)(C)c1ccccc1-3 = 0.24
• Cc1ccc(C2=C3C=C(I)C=[N+]3[B-](F)(F)n3cc(I)cc32)cc1 = 0.012
• FC(F)(F)c1ccc(/C=C/c2nc3c(ccc4ccccc43)s2)cc1 = 0.14
• Clc1ccc(/C=C/c2nc3ccccc3o2)cc1 = 0.14
• c1ccc(C2CCN3COc4c5ccccc5c5c6c7c(c2c3c46)C(c2ccccc2)CCN7CO5)cc1 (configuration not stated) = 0.715
• COc1ccc2c3c(c4ccc(OC)cc4c2c1)C1(c2ccccc2-c2ccccc21)c1ccccc1-3 = 0.21
